Data origin, for the record: the supplement of paper PMC10065799

Molecular target: Jak2 (UniProt O60674)
Sequence (O60674 whole entry, looked up): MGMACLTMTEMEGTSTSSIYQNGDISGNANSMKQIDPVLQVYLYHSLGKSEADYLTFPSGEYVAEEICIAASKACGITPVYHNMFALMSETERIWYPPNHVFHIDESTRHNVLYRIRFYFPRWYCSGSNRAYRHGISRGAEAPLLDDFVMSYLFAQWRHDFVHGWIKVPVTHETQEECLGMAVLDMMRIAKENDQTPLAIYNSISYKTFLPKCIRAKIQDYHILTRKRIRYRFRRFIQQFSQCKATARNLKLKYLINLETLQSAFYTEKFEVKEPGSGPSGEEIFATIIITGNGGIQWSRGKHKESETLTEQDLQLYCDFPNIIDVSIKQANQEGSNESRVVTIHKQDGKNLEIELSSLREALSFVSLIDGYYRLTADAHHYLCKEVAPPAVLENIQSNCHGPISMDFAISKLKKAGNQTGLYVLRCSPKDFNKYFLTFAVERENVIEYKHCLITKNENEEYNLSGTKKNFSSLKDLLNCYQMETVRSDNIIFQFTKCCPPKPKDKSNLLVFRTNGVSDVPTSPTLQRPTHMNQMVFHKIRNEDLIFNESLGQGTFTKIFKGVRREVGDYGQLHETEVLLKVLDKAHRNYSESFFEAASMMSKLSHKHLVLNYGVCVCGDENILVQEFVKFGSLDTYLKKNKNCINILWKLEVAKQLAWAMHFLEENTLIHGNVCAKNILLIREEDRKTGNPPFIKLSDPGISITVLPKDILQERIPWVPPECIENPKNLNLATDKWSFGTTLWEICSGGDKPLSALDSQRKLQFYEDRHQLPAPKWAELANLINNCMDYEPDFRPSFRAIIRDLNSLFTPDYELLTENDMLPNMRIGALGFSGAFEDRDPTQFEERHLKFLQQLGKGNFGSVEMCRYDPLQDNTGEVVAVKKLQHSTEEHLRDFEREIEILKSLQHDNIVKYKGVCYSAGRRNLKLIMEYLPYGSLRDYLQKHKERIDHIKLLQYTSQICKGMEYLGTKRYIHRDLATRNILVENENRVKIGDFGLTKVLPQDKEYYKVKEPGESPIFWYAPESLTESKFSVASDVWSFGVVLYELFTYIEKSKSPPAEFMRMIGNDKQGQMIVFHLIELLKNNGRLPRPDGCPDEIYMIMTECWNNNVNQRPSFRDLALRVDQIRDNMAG
Assay: phosphorylation enrichment, bacterial display (enrichment ratio); higher = better substrate or ligand; peptides without Tyr show the background;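 also: 11-residue human phosphosite peptides and single-mutation variants displayed on the E. coli surface, counted by deep sequencing, each peptide's frequency after selection divided by its frequency in the unselected input library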;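 also: frequency after pTyr selection over input frequency; kinase dosed for 20-30% of maximal phosphorylation in three min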
Kindly return y if reported phosphorylation enrichment is no lower than 0.6; return n if it is lower.

> print(dat)
                      query.sequence  class.name
 1    YRKNTYNVKST [SYNE2_Y575_I574T]           n
 2     FFRCHYPLTTL [TNS4_Y644_R642C]           y
 3       HKANEYYPVVL [ADAMTS18_Y764]           y
 4   HRGFLYLAIEF [TEK_Y899_Y897F_YF]           y
 5   HSPLRYTSILT [OR51B6_Y130_R125H]           y
 6     AEEKEYHAEEG [EGFR_Y869_G873E]           y
 7        IRRIAYEFVEM [ADA_Y84_K80R]           y
 8     PPSELYFVKVD [TERT_Y707_P704S]           y
 9  FFTEEYVRAHP [DOCK2_Y1555_D1558A]           y
10         IALNSYHSRNC [IFNGR1_Y397]           n
11  DFPMGYPSFLA [TBCK_Y153_I151M_YF]           y
12     ICGVSYDEYRY [CFTR_Y512_F508C]           y
13          RSRRSYSCQVM [IGLL1_Y192]           y
14       RLLRGHDQFAF [HLA-B_Y137_YF]           y
15       IGEGTYRTVFK [CDK5_Y15_G16R]           y
16      VNYQPYRKHKY [TEX37_Y28_D24N]           n

---

Molecular target: Jak2 (UniProt O60674)
Assay: phosphorylation enrichment, bacterial display (enrichment ratio); higher = better substrate or ligand; peptides without Tyr show the background
Observed property: phosphorylation enrichment

> print(dat)
                      query.sequence  readout.number
1   QRASDYFSQQM [GBP6_Y333_A331S_YF]            1.02
2   CFVFFYSFLLK [PTEN_Y178_R173C_YF]           0.987
3  DGMADCSDPSF [CDC5L_Y459_Y459C_YF]            1.01

---

Target: Jak2 (UniProt O60674)
Test: phosphorylation enrichment, bacterial display (enrichment ratio); higher = better substrate or ligand; peptides without Tyr show the background
Observed property: phosphorylation enrichment

> print(dat)
                       query.sequence           observed.property  readout.number
 1         SFPREYGSQEG [RBM10_Y48_YF]  phosphorylation enrichment           0.532
 2            NKYVAYIESQG [KDM4B_Y34]  phosphorylation enrichment           0.827
 3            RLRAAYNLVKR [PFKM_Y103]  phosphorylation enrichment           0.766
 4      NIISFYLSRDP [CTSD_Y232_F229I]  phosphorylation enrichment           0.958
 5           RLLREYQELMN [KRT75_Y434]  phosphorylation enrichment            1.11
 6      LINPKYSVEEE [PCDH19_Y27_L25P]  phosphorylation enrichment            1.65
 7  DPNQQYFIAMD [TBX15_Y159_H156N_YF]  phosphorylation enrichment           0.911
 8    WHFTFYNELRV [ACTC1_Y93_H90Y_YF]  phosphorylation enrichment             1.2
 9       TKDTFYKQPVF [GBA_Y451_M455V]  phosphorylation enrichment           0.695
10    LGRKLYSIATP [ABHD12_Y345_A349T]  phosphorylation enrichment             1.3
11             RRNEEYCLLDS [ITK_Y198]  phosphorylation enrichment            1.57
